# Study Target: Arginase-2, mitochondrial (Homo sapiens)
# Method Summary: in vitro enzyme assay to detect the production of urea directly proportional to the activity of Arginase II; further: in the data most compounds retested in dose-response had high values
# Assay type: functional
# Design: scale not given: direction of the effect not stated beside the values
# Cond: 33.3 µM
Value Type: Percent Effect (%)
Please respond with the number in % and leave the unit unwritten.

For reference, reported Percent Effect for Cc1ncc2c(n1)CN(CC(=O)Nc1ccncc1)CC2 stands at -1.44

Entry under test: Cn1cccc1C(=O)N1CCCN(CCCc2ccccc2)CC1 . Its Percent Effect was -14.8

get_value(item= Cc1ccc(C(C)NC(=O)Nc2ccccc2CN2CCOCC2)o1 (stereo unspecified) , readout=Percent Effect) returns -5.21

====

# Test system: Trypanosoma cruzi
# Method Summary: Trypanosoma cruzi phosphomannomutase and mannose-1-phosphate guanylyltransferase assay
# Type: functional
# Design: scale not given: direction of the effect not stated beside the values
# Cond: 10 µM
Value Type: Percent Effect (%)
Number in %, nothing else.

>>> reported("CC(C)N1CCC(Cc2cc(-c3ccccc3C(=O)O)ncn2)CC1")
-0.988

For Cc1noc(C2CCN(C(=O)CN(C)c3ccc(Cl)cn3)CC2)n1 the compound record lists Percent Effect as 4.6

Value of measured Percent Effect for the entry COc1ccc(F)cc1S(=O)(=O)NCC(c1cccn1C)N(C)C (stereo unspecified) : 0.196

====

Percent Effect overview
# Study Target: Sialic acid-binding Ig-like lectin 9 (Homo sapiens)
# Method Summary: Hs-Siglec9 ALPHAscreen SOP 20170721
# Design: scale not given: direction of the effect not stated beside the values
# Cond: 10 µM
Form entry: value (%) — number only.

# count of solved cases: 5
>>> reported("O=C(NCc1cc(O)ncn1)C1CCOc2ccccc2C1 (configuration not stated)")
6.22
>>> reported("Cc1[nH]c2ccccc2c1-c1ccnc(NCCN2CCOCC2)n1")
-2.88
>>> reported("CN(C)c1ccc(C(=O)NCC2(O)CCOCC2)cc1")
3.55
>>> reported("COCCN1C[C@@H]2CN(Cc3cccc(F)c3)CCC[C@]2(C(=O)O)C1")
-3.33
>>> reported("COc1ccc(OC)c(CCNC(=O)NC(C)Cn2ccnc2)c1 (configuration not stated)")
-3.09

# Percent Effect (compound: CN(C)C(=O)C1CN(Cc2ccccc2)CCN(S(C)(=O)=O)C1 (configuration not stated) ) is 7.06

Noted for Cc1ncsc1C(=O)NCCOc1ncc(Cl)cc1Cl : its Percent Effect reads 0.223

====

# Study Target: Proteasome subunit beta (Trypanosoma cruzi)
# Sequence (whole entry): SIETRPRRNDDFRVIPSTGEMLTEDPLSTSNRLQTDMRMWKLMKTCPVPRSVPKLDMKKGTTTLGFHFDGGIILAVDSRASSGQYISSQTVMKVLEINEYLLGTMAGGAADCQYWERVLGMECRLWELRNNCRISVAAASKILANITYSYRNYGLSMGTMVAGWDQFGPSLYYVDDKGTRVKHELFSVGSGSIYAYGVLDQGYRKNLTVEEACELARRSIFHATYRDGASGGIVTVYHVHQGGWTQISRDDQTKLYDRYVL
# Method Summary: Trypanosoma cruzi proteasome chymotrypsin-like activity (TcProtChymo) assay. Further: in the data most compounds retested in dose-response had high values.
# Type: functional
# Set-up: scale not given: direction of the effect not stated beside the values
# Cond: 9.37 µM
Consider the following compounds and their measured Percent Effect readings.
Note: unit % is implicit; provide only the numeric part.

Some compounds with known Percent Effect results, for comparison:
>>> reported("NC(=O)CC1CCN(C(=O)CCOc2ccc(Cl)cc2)CC1")
8.19
>>> reported("COc1ccc(CC(=O)N2CCCCC2Cn2cccn2)cc1OC (configuration not stated)")
6.81
>>> reported("c1cnnc(N2CCCC2CNCc2nc(-c3ccsc3)no2)c1 (configuration not stated)")
0.256
>>> reported("CC(C)CS(=O)(=O)CC(=O)N(C)Cc1ccc(OC(F)F)cc1")
15.2
>>> reported("O=C(C1SCCc2sccc21)N1CCC(O)CC1 (configuration not stated)")
6.34

Note to self: Percent Effect of Cn1cnc2c1CCN(Cc1noc(-c3ccccc3)n1)C2 with Proteasome subunit beta (Trypanosoma cruzi) was 1.27

Log: Proteasome subunit beta (Trypanosoma cruzi), compound CCC(=O)N1CCc2nc3cc(OC)c(OC)cc3c(=O)n2CC1 , Percent Effect = 8.58

====

# Tested on: Trypanosoma cruzi
# Method Summary: Trypanosoma cruzi phosphomannomutase and mannose-1-phosphate guanylyltransferase assay
# Assay type: functional
# Design: scale not given: direction of the effect not stated beside the values
# Cond: 10 µM
Value Type: Percent Effect (%)
Use % as the unit, but write only the number.

>>> reported("CCN1CCN(c2ccc(CNC(=O)c3c(C)noc3C)cn2)CC1")
3.01
>>> reported("COc1cccc2c1OCC(C(=O)N(C)CCCc1cnn(C)c1)C2 (stereo unspecified)")
-6.27
>>> reported("CC(C)c1cc(C(=O)N(C)Cc2cccc3ncccc23)n(C)n1")
0.986
>>> reported("COC(=O)[C@H](C)NC(=O)c1cc(-c2cccc(Cl)c2)no1")
2.43
>>> reported("O=C1CC2(CCCNC2)C(=O)N1Cc1ccc(F)cc1 (stereo unspecified)")
-5.82

Turning now to a further record.
For this compound ( CC(C)C(=O)N1CCC(c2nc(O)cc(-c3ccncc3)n2)CC1 ), measured Percent Effect is 3.16

====

# Species on record: Homo sapiens
# Method Summary: To identify inhibition of the IFN signalling (Jak-Stat) pathway via expression of an eGFP reporter gene under the control of an IFN-stimulated response element (ISRE) containing MxA promoter.
# Type: functional
# Parameters: scale not given: direction of the effect not stated beside the values
# Cond: 30 µM
Value Type: Percent Effect (%)
Express it in %; write the number only.

>>> reported("O=C(c1cccs1)N1CC[C@H](O)[C@@H]1Cc1ccccc1")
23.5
>>> reported("O=C(C[C@@H]1COC[C@H]2CN(Cc3ccc(F)cc3)C[C@@H]12)N1CCCCO1")
19
>>> reported("Cc1nc(C)c(CC(=O)Nc2ncc(C)s2)c(=O)[nH]1")
-6.67

Reported Percent Effect of OC(COCc1ccc(Cl)cc1)CN1CCC(c2ccn[nH]2)CC1 (centres undefined) : -5.57

What the record says about Cc1cccc(-c2nc(CN3CCc4cnc(C)nc4C3)no2)c1 : Percent Effect is -1.99

Query Cc1nn(C)cc1CCC(=O)N1CCCC(n2cncn2)C1 (centres undefined) yields Percent Effect of -4

====

Known Percent Effect of a selection of compounds
# Study Target: AMP-activated protein kinase, AMPK (Homo sapiens) (UniProt P54646+O43741+P54619+Q9UGJ0+Q9Y478+Q13131+Q9UGI9)
# Method Summary: AMP-dependent Kinase enzyme assay. An in vitro enzyme assay that detects ADP turnover that is directly proportional to AMPK activity. This uses naive AMPK that is activated during the assay with MK-8722
# Assay type: functional
# Design: scale not given: direction of the effect not stated beside the values
# Cond: 30 µM
Field: numeric (%). Do not append units.

>>> reported("COc1ccc(CN2C[C@@H]3OCCN(CC4CCCO4)[C@@H]3C2)cc1 (some centres undefined)")
2.03
>>> reported("Cn1nc(CNC(=O)c2ccc(Cl)cc2)c2c1CCOC2")
6.72
>>> reported("CN(C)C1CCN(C(=O)NCc2ccccc2Cn2cncn2)CC1")
-1.1
>>> reported("COCCCN(C)C1CCCN(Cc2noc(C)n2)C1 (centres undefined)")
-5.43
>>> reported("CCN(CC)C(=O)CCNC(=O)Cc1nc(-c2ccco2)oc1C")
-3.57
>>> reported("Cc1ncsc1C(=O)NC1CCN(CCC(N)=O)CC1")
-3
>>> reported("CN1CCN(C(=O)c2ccc(=O)n(C)c2)c2ccccc21")
-11
>>> reported("COc1ccc2c(O)c(NC(=O)NCC3CC3)cnc2c1")
9.57

The compound COCCn1ccc(=O)c(OCC(=O)Nc2cccc(C(C)=O)c2)c1C showed Percent Effect equal to 3.85

Lab book: Percent Effect of COCCNC(=O)Cn1nc(C(C)C)c2cnn(C(C)(C)C)c2c1=O noted as -1.93

Entry under test: Cc1noc(NC(=O)c2ccc(Br)s2)n1 . Its Percent Effect was 14.6

Percent Effect measured on O=C(c1ccc(-n2cccn2)nc1)N1CCC(Nc2cccnn2)CC1 = 4.61

What the record says about Cc1n[nH]c(C)c1C1CCCN1C(=O)NCCSC(C)(C)C (centres undefined) : Percent Effect is 3.06

====

# Study Target: Sialic acid-binding Ig-like lectin 9 (Homo sapiens) (UniProt Q9Y336)
# Sequence (Q9Y336 whole entry): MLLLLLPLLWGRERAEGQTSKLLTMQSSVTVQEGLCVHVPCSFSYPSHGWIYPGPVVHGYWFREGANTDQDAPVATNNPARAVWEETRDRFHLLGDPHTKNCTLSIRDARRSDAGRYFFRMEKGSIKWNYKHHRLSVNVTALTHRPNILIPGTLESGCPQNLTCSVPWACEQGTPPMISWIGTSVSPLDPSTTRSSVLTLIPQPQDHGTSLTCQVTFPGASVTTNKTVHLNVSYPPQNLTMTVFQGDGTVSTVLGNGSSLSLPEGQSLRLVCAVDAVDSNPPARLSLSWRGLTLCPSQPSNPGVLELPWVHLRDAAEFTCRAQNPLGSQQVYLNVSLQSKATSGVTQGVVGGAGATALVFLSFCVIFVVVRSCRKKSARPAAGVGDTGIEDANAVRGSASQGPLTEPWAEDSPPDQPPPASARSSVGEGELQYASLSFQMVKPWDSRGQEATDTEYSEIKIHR
# Method Summary: Hs-Siglec9 ALPHAscreen SOP 20170721
# Parameters: scale not given: direction of the effect not stated beside the values
# Cond: 10 µM
Value Type: Percent Effect (%)
Express the result in % but write the number alone.

>>> reported("Cc1ccc2oc(C(=O)N3CCc4nnc(N(C)C)cc4C3)cc2n1")
5.58
>>> reported("CC(C)COCC(NC(=O)c1ccccn1)c1ccco1 (stereo unspecified)")
0.407
>>> reported("c1ccc(-c2ccc(C3CNCCO3)nc2)cc1 (stereo unspecified)")
-4.38
>>> reported("CN(C)C(=O)[C@@H]1C[C@@H]2CCN(Cc3ccc4c(c3)OCO4)C[C@@H]2O1")
-0.448
>>> reported("Cc1cnn(C2CCCN(C(=O)c3ccnc(-n4ccnc4)c3)C2)c1 (stereo unspecified)")
0.259
>>> reported("O=C(Cc1cccnc1)N1CCC(OCc2ccccc2)CC1")
3
>>> reported("O=S(=O)(c1ccccc1Cl)N1CCc2nc(C3CCNCC3)ncc2C1")
8.22
>>> reported("CN(C)c1ccccc1C(=O)N1C[C@@H](CN2CCOCC2)[C@@H](CO)C1")
5.57
>>> reported("Cn1cc(CN2CCc3onc(COc4cccnc4)c3C2)cn1")
-10.2
>>> reported("CCc1nc2n(n1)CC(Nc1cc(C)nc3ncnn13)CC2 (stereo unspecified)")
12.4

Now let's try a different one.
Sure, the documented Percent Effect for CN1C(=O)C(C)(C)COc2cc(NS(=O)(=O)Cc3ccccc3)ccc21 is -8.62

Entry source: ChEMBL document CHEMBL3988442
